Origin of values: patent US20200317769A1

Please respond with reported Inhibition of mTNF-alpha-induced HEK-NF-kB SEAP Reporter (EC50 = nM) for every item in the list.
Molecular target: non-cleavable transmembrane form of human TNF-alpha on CHO cells (mTNF-alpha-CHO) (human, UniProt P01375 1-233)
Sequence (P01375 whole entry): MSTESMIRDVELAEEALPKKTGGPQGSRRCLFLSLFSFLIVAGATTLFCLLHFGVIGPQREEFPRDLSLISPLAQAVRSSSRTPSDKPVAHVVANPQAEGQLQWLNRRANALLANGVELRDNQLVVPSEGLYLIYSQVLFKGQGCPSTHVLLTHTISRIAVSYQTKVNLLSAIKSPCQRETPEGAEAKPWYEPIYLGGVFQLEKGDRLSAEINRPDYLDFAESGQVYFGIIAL
Test: cell-based or functional assay
Entry rule: numbers only, all in nM.

Given the binder Q65D1 (VHH, not shown: small tags and cut ends, Family 1; purified from E. coli) VHH: EVQLVESGGGLVQPGGSLRLSCTASGFDFDNHWMCWVRQAPGKGLEWVSEINTNGLITKYADFVKGRFTVSRDNAANTLYLQITRLKPEDTALYYCARNQKGLNKGQGTQVTVSS , what is its reported Inhibition of mTNF-alpha-induced HEK-NF-kB SEAP Reporter (EC50 = nM)?
15.3

Given the binder Q65D3 (VHH, not shown: small tags and cut ends, Family 1; purified from E. coli) VHH: EVQLVESGGGLVQPGGSLRLSCVASGFDFSSHWMYWVRQAPGKGLEWVSEINTNGLITKYADSTKGRFTVSRDNAANMLNLEMTSLEPEDTALYYCARNERGLNKGQGTQVTVSS , what is its reported Inhibition of mTNF-alpha-induced HEK-NF-kB SEAP Reporter (EC50 = nM)?
16

Given the binder Q65A3 (VHH, not shown: small tags and cut ends, Family 2; purified from E. coli) VHH: EVQLVESGGGLVQPGGSLRPSCTTSGLDFGIHWMYWFRQAPGKELEWVAEINTNALITKYADSVKGRFTISRDNAKNTLFLQMNDLKSEDTAVYYCSNTQNGAAKGQGVQVTVSS , what is its reported Inhibition of mTNF-alpha-induced HEK-NF-kB SEAP Reporter (EC50 = nM)?
23.9

Given the binder Q65E12 (VHH, not shown: small tags and cut ends, Family 2; purified from E. coli) VHH: EVQLVESGGGLVQPGGSLRLSCSASGFDFSIHWMYWVRQAPGKELEWVAEINTNGLITLYADSVKGRFTASRDNAKNALFLQMNDLKFEDTAVYYCAKSRNGAAGGQGTQVTVSS , what is its reported Inhibition of mTNF-alpha-induced HEK-NF-kB SEAP Reporter (EC50 = nM)?
174

Given the binder Q65B1 (VHH, not shown: small tags and cut ends, Family 1; purified from E. coli; parent of the ID series) VHH: EVQLVESGGGLVQPGGSLKLSCAASGFDFSSHWMYWVRQAPGKELEWLSEINTNGLITKYGDSVKGRFTVSRNNAANKMYLELTRLEPEDTALYYCARNQKGLNKGQGTQVTVSS , what is its reported Inhibition of mTNF-alpha-induced HEK-NF-kB SEAP Reporter (EC50 = nM)?
10.9

Given the binder Q65C7 (VHH, not shown: small tags and cut ends, Family 1; purified from E. coli) VHH: EVQLVESGGGLVQPGRSLRLSCTASGFDFSSHWMYWVRQAPGKGLEWVSEINTNGLITKYADFVKGRFTVSRDNAANTLYLEITRLEPEDTALYYCARNQKGLNKGQGTQVTVSS , what is its reported Inhibition of mTNF-alpha-induced HEK-NF-kB SEAP Reporter (EC50 = nM)?
14.1

Given the binder Q65F6 (VHH, not shown: small tags and cut ends, Family 2; purified from E. coli) VHH: EVQLVESGGGLVQPGGSLRLSCTASGFDFGIHWMYWVRQAPGKELEWVAEINTNGLITLYSDSVRGRFTASRDNANNALFLQMNDLKFEDTAVYYCAKSRNGAAKGQGTQVTVSS , what is its reported Inhibition of mTNF-alpha-induced HEK-NF-kB SEAP Reporter (EC50 = nM)?
110
